- System: Streptococcus pneumoniae
- protocol.summary: Antibacterial activity against penicillin- and quinolone-susceptible Streptococcus pneumoniae HMC 5055 expressing mefA by broth microdilution method
- Assay type: functional
observed.property: MIC (µg/mL)
Report as a plain number; the unit µg/mL is understood.

# molecule, output.unit, MIC
measured = [
    ("CO/N=C1\\CN(c2nc3c(cc2F)c(=O)c(C(=O)O)cn3C2CC2)CC1CN (stereo not given)", "µg/mL", 0.03),
    ("COc1c(N2C[C@@H]3CCCN[C@@H]3C2)c(F)cc2c(=O)c(C(=O)O)cn(C3CC3)c12", "µg/mL", 0.25),
    ("COc1c(N2CCNC(C)C2)c(F)cc2c(=O)c(C(=O)O)cn(C3CC3)c12 (stereo not given)", "µg/mL", 0.25),
    ("COc1c(N2CC3(CC3)[C@](C)(N)C2)c(F)cc2c(=O)c(C(=O)O)cn([C@@H]3C[C@@H]3F)c12.O", "µg/mL", 0.12),
]

Could you now consider this next molecule?
I have this molecule here, CC[C@H]1OC(=O)[C@H](C)[C@@H](O[C@H]2C[C@@](C)(OC)[C@@H](O)[C@H](C)O2)[C@H](C)[C@@H](O[C@@H]2O[C@H](C)C[C@H](N(C)C)[C@H]2O)[C@](C)(O)C[C@@H](C)CN(C)[C@H](C)[C@@H](O)[C@]1(C)O , and I need its recorded MIC.
2
